- Target of assay: UniProt:Q14994
- Sequence (Q14994 whole entry, the tested form may be a part): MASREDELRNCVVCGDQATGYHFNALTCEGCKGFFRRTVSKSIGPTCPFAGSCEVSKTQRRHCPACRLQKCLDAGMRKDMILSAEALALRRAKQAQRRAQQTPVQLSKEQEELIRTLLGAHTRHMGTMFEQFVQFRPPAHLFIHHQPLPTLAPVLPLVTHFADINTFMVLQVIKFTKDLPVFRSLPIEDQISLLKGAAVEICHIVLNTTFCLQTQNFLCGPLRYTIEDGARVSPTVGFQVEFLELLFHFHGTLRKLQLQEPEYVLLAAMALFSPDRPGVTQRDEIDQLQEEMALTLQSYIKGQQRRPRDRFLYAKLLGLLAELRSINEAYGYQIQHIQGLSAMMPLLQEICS
- Assay overview: Inhibition of GST-tagged human CAR LBD incubated for 90 mins by TR-FRET assay
pIC50: −log10 of the molar value.
In this section, each of the molecules is paired with its reported pIC50.
Reported endpoint: pIC50

Record smiles | Target of assay | Recorded measurement
O=S(=O)(c1ccccc1)N(CC(F)(F)F)c1ccc(C(O)(C(F)(F)F)C(F)(F)F)cc1 | UniProt:Q14994 | 6.19
Cc1oc2ccccc2c1CNC(=O)NCc1cccs1 | UniProt:Q14994 | 6.59
CCOC(=O)Nc1ccc2c(c1)N(C(=O)CN(CC)CC)c1ccccc1CC2 | UniProt:Q14994 | 6.79
O=C(Nc1ccc2c(c1)N(C(=O)Cn1cccc1)c1ccccc1CC2)OC1CCCCC1 | UniProt:Q14994 | 7.89
C[C@]12CC[C@@H](O)C[C@@H]1CC[C@@H]1[C@@H]2CC[C@]2(C)C=CC[C@@H]12 | UniProt:Q14994 | 6.47
